Origin of values: patent US8481539B2

target: UniProt:P04629
Sequence (P04629 443-796): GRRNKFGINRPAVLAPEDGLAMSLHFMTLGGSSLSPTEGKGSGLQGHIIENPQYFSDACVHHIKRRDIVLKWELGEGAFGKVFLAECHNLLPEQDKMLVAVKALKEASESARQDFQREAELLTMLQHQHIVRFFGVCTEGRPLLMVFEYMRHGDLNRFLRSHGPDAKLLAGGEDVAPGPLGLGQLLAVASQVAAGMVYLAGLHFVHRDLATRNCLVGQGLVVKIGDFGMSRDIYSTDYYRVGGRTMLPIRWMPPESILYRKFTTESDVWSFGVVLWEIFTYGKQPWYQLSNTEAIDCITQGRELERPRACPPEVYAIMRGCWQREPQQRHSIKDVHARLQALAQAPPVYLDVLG
pIC50: −log10 of the molar value.
This section presents compounds with their documented pIC50 values.

STRUCTURE_AS_SMILES	PROPERTY_LABEL	RESULT
Cc1ccc(NC(=O)c2cccc(C(F)(F)F)c2)cc1C#Cc1cncc2c1cnn2C	pIC50	≤ 5.00

Proceeding to the next compound to report its pIC50.
Lookup: Data request, read-out pIC50, for "Cn1ncc2c(C#Cc3cccc(NC(=O)Nc4ccccc4)c3)cncc21"
Found: ≤ 5.00
